Target: HLA-A*24 (human)
Test: UV-exchange ELISA, exchange yield grade
observation type: peptide exchange yield

1) VFIHHLPQF [… (SEQ ID NO: 200)] ... 50 to 75%
2) SYLTQHQRI [… (SEQ ID NO: 341)] ... 50 to 75%
3) KYTEKLEEI [… (SEQ ID NO: 387)] ... 50 to 75%
4) QYFTGNPLF [… (SEQ ID NO: 127)] ... 50 to 75%
5) RYLTISNLQF [… (SEQ ID NO: 163)] ... > 75%
6) TYLEKIDGF [… (SEQ ID NO: 208)] ... > 75%
7) AYKSEVVYF [… (SEQ ID NO: 298)] ... > 75%
8) GYKTFFNEF [… (SEQ ID NO: 188)] ... 50 to 75%
9) SYAPPSEDLFL [… (SEQ ID NO: 213)] ... 20 to 49%
10) KQLDIANYELF [… (SEQ ID NO: 274)] ... > 75%
11) VYPVVLNQI [… (SEQ ID NO: 205)] ... 50 to 75%
12) IYAPTLLVF [… (SEQ ID NO: 310)] ... 50 to 75%
13) IYVTGGHLF [… (SEQ ID NO: 355)] ... 50 to 75%
14) SYLKAVFNL [… (SEQ ID NO: 219)] ... 50 to 75%
15) TFDGHGVFF [… (SEQ ID NO: 308)] ... 50 to 75%
16) VYTPVLEHL [… (SEQ ID NO: 123)] ... 20 to 49%

# credit: patent US20220249633A1
